Molecular target: TLR4 (Homo sapiens, UniProt O00206+Q9Y6Y9)
Construct: expressed in transfected cells; host or cells: HEK293
Sequence (O00206 24-839): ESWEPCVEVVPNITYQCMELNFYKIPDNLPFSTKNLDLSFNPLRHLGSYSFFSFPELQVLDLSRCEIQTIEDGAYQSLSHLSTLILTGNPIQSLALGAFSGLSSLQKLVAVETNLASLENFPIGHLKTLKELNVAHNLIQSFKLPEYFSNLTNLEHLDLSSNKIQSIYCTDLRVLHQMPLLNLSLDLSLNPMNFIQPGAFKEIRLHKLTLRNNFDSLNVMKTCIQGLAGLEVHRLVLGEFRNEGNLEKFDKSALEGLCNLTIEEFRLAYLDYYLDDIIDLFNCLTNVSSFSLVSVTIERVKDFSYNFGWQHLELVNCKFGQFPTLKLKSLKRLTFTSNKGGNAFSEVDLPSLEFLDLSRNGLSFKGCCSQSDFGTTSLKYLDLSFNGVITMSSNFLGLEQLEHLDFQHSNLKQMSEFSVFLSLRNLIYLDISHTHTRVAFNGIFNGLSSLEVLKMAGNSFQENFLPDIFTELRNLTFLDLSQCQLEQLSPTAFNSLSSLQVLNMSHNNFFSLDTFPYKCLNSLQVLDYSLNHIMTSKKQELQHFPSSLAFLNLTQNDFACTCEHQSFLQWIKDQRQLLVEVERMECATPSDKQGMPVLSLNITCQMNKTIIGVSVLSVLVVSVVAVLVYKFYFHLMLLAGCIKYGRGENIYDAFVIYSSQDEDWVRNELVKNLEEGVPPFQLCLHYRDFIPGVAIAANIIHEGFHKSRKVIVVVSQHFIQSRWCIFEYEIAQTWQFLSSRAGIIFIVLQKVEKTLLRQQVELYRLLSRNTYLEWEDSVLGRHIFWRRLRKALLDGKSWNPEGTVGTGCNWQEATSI
Sequence (Q9Y6Y9 17-160 limits assumed): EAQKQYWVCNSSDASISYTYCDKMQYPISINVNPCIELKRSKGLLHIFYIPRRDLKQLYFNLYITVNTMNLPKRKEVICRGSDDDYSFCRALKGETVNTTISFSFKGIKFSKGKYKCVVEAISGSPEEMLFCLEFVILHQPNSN
Test: HEK-MD2-TLR4-CD14 IL-8 secretion
Assay type: cell-based
Settings: 10000 ng/ml, 24 h
quantity-measured: IL-8 secretion, mean (pg/mL)
Numeric answer only, unit pg/mL assumed.

>>> measured_value("CCCCCCCCCCCC(=O)O[C@H](CCCCCCCCCCC)CC(=O)N[C@H]1[C@H](OC[C@H]2O[C@H](OCC(O)CO)[C@H](NC(=O)C[C@H](O)CCCCCCCCCCC)[C@@H](O)[C@@H]2O)O[C@H](CO)[C@@H](OP(=O)(O)O)[C@@H]1O (stereo partly shown)")
1.96
>>> measured_value("CCCCCCCCCCCC(=O)O[C@H](CCCCCCCCCCC)CC(=O)N[C@H]1[C@H](OC[C@H]2O[C@H](OCCC)[C@H](NC(=O)C[C@H](O)CCCCCCCCCCC)[C@@H](O)[C@@H]2O)O[C@H](CO)[C@@H](OP(=O)(O)O)[C@@H]1O")
1.70
>>> measured_value("CCCCCCCCCCCC(=O)O[C@H](CCCCCCCCCCC)CC(=O)N[C@H]1[C@H](OC[C@H]2O[C@H](O)[C@H](NC(=O)C[C@H](O)CCCCCCCCCCC)[C@@H](O)[C@@H]2O)O[C@H](CO)[C@@H](OP(=O)(O)O)[C@@H]1O")
1.90

Next:
Fill blank: measured IL-8 secretion, mean of the compound `CCCCCCCCCCCC(=O)O[C@H](CCCCCCCCCCC)CC(=O)N[C@H]1[C@H](OC[C@H]2O[C@H](OCCOP(=O)(O)O)[C@H](NC(=O)C[C@H](O)CCCCCCCCCCC)[C@@H](O)[C@@H]2O)O[C@H](CO)[C@@H](OP(=O)(O)O)[C@@H]1O` is ____.
1.78

----------
Biological target: TLR2 and CD14 (Homo sapiens, UniProt O60603)
Construct: expressed in transfected cells; host or cells: HEK (HEK-TLR2-CD14 cell line)
Sequence (O60603 21-784): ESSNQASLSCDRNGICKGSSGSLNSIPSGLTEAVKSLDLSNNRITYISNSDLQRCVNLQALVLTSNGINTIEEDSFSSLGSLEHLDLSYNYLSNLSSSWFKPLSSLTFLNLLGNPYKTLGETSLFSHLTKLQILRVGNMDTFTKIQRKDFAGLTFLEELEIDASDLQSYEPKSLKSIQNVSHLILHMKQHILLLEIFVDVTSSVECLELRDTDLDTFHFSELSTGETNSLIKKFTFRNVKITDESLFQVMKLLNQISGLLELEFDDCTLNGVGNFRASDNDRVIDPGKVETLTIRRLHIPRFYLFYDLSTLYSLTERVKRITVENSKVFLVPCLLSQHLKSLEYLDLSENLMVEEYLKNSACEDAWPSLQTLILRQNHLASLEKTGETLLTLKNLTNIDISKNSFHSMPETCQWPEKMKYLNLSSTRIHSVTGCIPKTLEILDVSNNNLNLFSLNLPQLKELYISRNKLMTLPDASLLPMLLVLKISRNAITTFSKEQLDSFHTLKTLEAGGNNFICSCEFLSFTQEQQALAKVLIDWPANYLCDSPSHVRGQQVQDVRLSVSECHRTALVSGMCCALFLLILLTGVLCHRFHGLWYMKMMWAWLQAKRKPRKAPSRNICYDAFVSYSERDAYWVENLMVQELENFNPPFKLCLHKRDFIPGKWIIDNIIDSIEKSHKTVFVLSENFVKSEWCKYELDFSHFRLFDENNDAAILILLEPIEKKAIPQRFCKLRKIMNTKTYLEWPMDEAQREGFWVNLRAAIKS
Assay: HEK-TLR2-CD14 IL-8 secretion
Type: cell-based
Conditions: 10000 ng/ml, 24 h
quantity-measured: IL-8 secretion, mean (pg/mL)
Numeric answer only, unit pg/mL assumed.

Below, 3 molecules whose answers are already recorded.
>>> measured_value("CCCCCCCCCCCC(=O)O[C@H](CCCCCCCCCCC)CC(=O)N[C@H]1[C@H](OC[C@H]2O[C@H](O)[C@H](NC(=O)C[C@H](O)CCCCCCCCCCC)[C@@H](O)[C@@H]2O)O[C@H](CO)[C@@H](OP(=O)(O)O)[C@@H]1O")
0.22
>>> measured_value("CCCCCCCCCCCC(=O)O[C@H](CCCCCCCCCCC)CC(=O)N[C@H]1[C@H](OC[C@H]2O[C@H](OCC(O)CO)[C@H](NC(=O)C[C@H](O)CCCCCCCCCCC)[C@@H](O)[C@@H]2O)O[C@H](CO)[C@@H](OP(=O)(O)O)[C@@H]1O (stereo partly shown)")
0.65
>>> measured_value("CCCCCCCCCCCC(=O)O[C@H](CCCCCCCCCCC)CC(=O)N[C@H]1[C@H](OC[C@H]2O[C@H](OCCOP(=O)(O)O)[C@H](NC(=O)C[C@H](O)CCCCCCCCCCC)[C@@H](O)[C@@H]2O)O[C@H](CO)[C@@H](OP(=O)(O)O)[C@@H]1O")
4.24

Next:
Fill blank: measured IL-8 secretion, mean of the molecule `CCCCCCCCCCCC(=O)O[C@H](CCCCCCCCCCC)CC(=O)N[C@H]1[C@H](OC[C@H]2O[C@H](OCCC)[C@H](NC(=O)C[C@H](O)CCCCCCCCCCC)[C@@H](O)[C@@H]2O)O[C@H](CO)[C@@H](OP(=O)(O)O)[C@@H]1O` is ____.
3.59

----------
Optical density read at 625 nm, mean of duplicates for assorted compounds
Test system: THP1-Blue cells (express naturally both TLR2 and TLR4)
Test: THP1-Blue NF-κB/AP-1-inducible SEAP reporter
Type: cell-based, human
Conditions: 14 ng/ml, 48 h
Numeric answer only, unit OD assumed.

>>> measured_value("CCCCCCCCCCCC(=O)O[C@H](CCCCCCCCCCC)CC(=O)N[C@H]1[C@H](OC[C@H]2O[C@H](OCCOP(=O)(O)O)[C@H](NC(=O)C[C@H](O)CCCCCCCCCCC)[C@@H](O)[C@@H]2O)O[C@H](CO)[C@@H](OP(=O)(O)O)[C@@H]1O")
0.13
>>> measured_value("CCCCCCCCCCCC(=O)O[C@H](CCCCCCCCCCC)CC(=O)N[C@H]1[C@H](OC[C@H]2O[C@H](OCC(O)CO)[C@H](NC(=O)C[C@H](O)CCCCCCCCCCC)[C@@H](O)[C@@H]2O)O[C@H](CO)[C@@H](OP(=O)(O)O)[C@@H]1O (stereo partly shown)")
0.15
>>> measured_value("CCCCCCCCCCCC(=O)O[C@H](CCCCCCCCCCC)CC(=O)N[C@H]1[C@H](OC[C@H]2O[C@H](O)[C@H](NC(=O)C[C@H](O)CCCCCCCCCCC)[C@@H](O)[C@@H]2O)O[C@H](CO)[C@@H](OP(=O)(O)O)[C@@H]1O")
0.15

Next:
Fill blank: measured Optical density read at 625 nm, mean of duplicates of the compound `CCCCCCCCCCCC(=O)O[C@H](CCCCCCCCCCC)CC(=O)N[C@H]1[C@H](OC[C@H]2O[C@H](OCCC)[C@H](NC(=O)C[C@H](O)CCCCCCCCCCC)[C@@H](O)[C@@H]2O)O[C@H](CO)[C@@H](OP(=O)(O)O)[C@@H]1O` is ____.
0.13

----------
Target: TLR4 (Homo sapiens, UniProt O00206+Q9Y6Y9)
Construct: expressed in transfected cells; host or cells: HEK293
Test: HEK-MD2-TLR4-CD14 IL-8 secretion
Format: cell-based
Settings: 124 ng/ml, 24 h
IL-8 secretion, mean for assorted molecules

Below, 3 molecules whose answers are already recorded.
>>> measured_value("CCCCCCCCCCCC(=O)O[C@H](CCCCCCCCCCC)CC(=O)N[C@H]1[C@H](OC[C@H]2O[C@H](OCCC)[C@H](NC(=O)C[C@H](O)CCCCCCCCCCC)[C@@H](O)[C@@H]2O)O[C@H](CO)[C@@H](OP(=O)(O)O)[C@@H]1O [compound 17]")
"1.93 pg/mL"
>>> measured_value("CCCCCCCCCCCC(=O)O[C@H](CCCCCCCCCCC)CC(=O)N[C@H]1[C@H](OC[C@H]2O[C@H](O)[C@H](NC(=O)C[C@H](O)CCCCCCCCCCC)[C@@H](O)[C@@H]2O)O[C@H](CO)[C@@H](OP(=O)(O)O)[C@@H]1O [compound 16]")
"1.62 pg/mL"
>>> measured_value("CCCCCCCCCCCC(=O)O[C@H](CCCCCCCCCCC)CC(=O)N[C@H]1[C@H](OC[C@H]2O[C@H](OCC(O)CO)[C@H](NC(=O)C[C@H](O)CCCCCCCCCCC)[C@@H](O)[C@@H]2O)O[C@H](CO)[C@@H](OP(=O)(O)O)[C@@H]1O (stereo partly shown) [compound 19]")
"1.56 pg/mL"

Next:
Fill blank: measured IL-8 secretion, mean of the molecule CCCCCCCCCCCC(=O)O[C@H](CCCCCCCCCCC)CC(=O)N[C@H]1[C@H](OC[C@H]2O[C@H](OCCOP(=O)(O)O)[C@H](NC(=O)C[C@H](O)CCCCCCCCCCC)[C@@H](O)[C@@H]2O)O[C@H](CO)[C@@H](OP(=O)(O)O)[C@@H]1O [compound 33] is ____.
1.65 pg/mL

----------
Biological target: TLR4 (Homo sapiens, UniProt O00206+Q9Y6Y9)
Construct: expressed in transfected cells; host or cells: HEK293
Test: HEK-MD2-TLR4-CD14 IL-8 secretion
Assay type: cell-based
Details: 370 ng/ml, 24 h
IL-8 secretion, mean for assorted compounds
Numeric answer only, unit pg/mL assumed.

API: value(readout=IL-8 secretion, mean, system=TLR4 (Homo sapiens, UniProt O00206+Q9Y6Y9)) for record CCCCCCCCCCCC(=O)O[C@H](CCCCCCCCCCC)CC(=O)N[C@H]1[C@H](OC[C@H]2O[C@H](OCC(O)CO)[C@H](NC(=O)C[C@H](O)CCCCCCCCCCC)[C@@H](O)[C@@H]2O)O[C@H](CO)[C@@H](OP(=O)(O)O)[C@@H]1O (stereo partly shown) [compound 19]
1.67

API: value(readout=IL-8 secretion, mean, system=TLR4 (Homo sapiens, UniProt O00206+Q9Y6Y9)) for record CCCCCCCCCCCC(=O)O[C@H](CCCCCCCCCCC)CC(=O)N[C@H]1[C@H](OC[C@H]2O[C@H](OCCOP(=O)(O)O)[C@H](NC(=O)C[C@H](O)CCCCCCCCCCC)[C@@H](O)[C@@H]2O)O[C@H](CO)[C@@H](OP(=O)(O)O)[C@@H]1O [compound 33]
1.64

API: value(readout=IL-8 secretion, mean, system=TLR4 (Homo sapiens, UniProt O00206+Q9Y6Y9)) for record CCCCCCCCCCCC(=O)O[C@H](CCCCCCCCCCC)CC(=O)N[C@H]1[C@H](OC[C@H]2O[C@H](OCCC)[C@H](NC(=O)C[C@H](O)CCCCCCCCCCC)[C@@H](O)[C@@H]2O)O[C@H](CO)[C@@H](OP(=O)(O)O)[C@@H]1O [compound 17]
1.85

API: value(readout=IL-8 secretion, mean, system=TLR4 (Homo sapiens, UniProt O00206+Q9Y6Y9)) for record CCCCCCCCCCCC(=O)O[C@H](CCCCCCCCCCC)CC(=O)N[C@H]1[C@H](OC[C@H]2O[C@H](O)[C@H](NC(=O)C[C@H](O)CCCCCCCCCCC)[C@@H](O)[C@@H]2O)O[C@H](CO)[C@@H](OP(=O)(O)O)[C@@H]1O [compound 16]
1.66
